tested_target: T1, COVID S1 RBM Fc fusion (Antigen 2) (SARS-CoV-2, UniProt P0DTC2 437-508)
T1 construct: domain: RBM
experiment: phage ELISA
What ELISA fold over background was measured for each of the following?
Give bare numbers, in fold over background.

Enquiry: Consider the binder shown here: 1-2 (antibody, V domains shown, also called variant 1-2) VH: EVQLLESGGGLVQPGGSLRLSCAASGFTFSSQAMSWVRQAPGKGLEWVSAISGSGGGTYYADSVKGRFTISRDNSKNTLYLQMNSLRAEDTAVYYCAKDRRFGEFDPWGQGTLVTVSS VL: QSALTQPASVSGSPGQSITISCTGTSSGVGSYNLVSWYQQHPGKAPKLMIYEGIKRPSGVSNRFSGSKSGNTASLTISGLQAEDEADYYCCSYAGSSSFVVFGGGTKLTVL What is its recorded ELISA fold over background?
Return: 1.7

Shifting focus to the binder that follows.
Enquiry: So what does the record say about ELISA fold over background for 1-48 (antibody, V domains shown, also called variant 1-48) VH: EVQLLESGGGLVQPGGSLRLSCAASGFTFSSHAMYWVRQAPGKGLEWVSAISGSAGSTYYADSVKGRFTISRDNSKNTLYLQMNSLRAEDTAVYYCAHDTKDFWSGYCIFDPWGQGTLVTVSS VL: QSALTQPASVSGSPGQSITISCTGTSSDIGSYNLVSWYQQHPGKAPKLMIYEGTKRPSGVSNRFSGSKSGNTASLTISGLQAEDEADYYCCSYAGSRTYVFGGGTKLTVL ?
Return: 0.8
